meta.source: patent US20220146526A1

# method notes: LC/MS of blood plasma sample: time from blood collection to cooling of blood (Table E)
# Format: physicochemical, human
# Set-up: key: detection intensity relative to ≤1 min to cooling = 1
# applied conditions: detection intensity relative to 1 at 1 minute or less, blood collection to cooling 5 minutes
value kind: Rate of increase or decrease

Past entries and their recorded results:
- molecule: "N[C@@H](CS)C(=O)O"
  Rate of increase or decrease: 1.67
- molecule: "O=c1[nH]c(=O)c2[nH]cnc2[nH]1"
  Rate of increase or decrease: 1.47
- molecule: "NC(=O)c1cccnc1 [Nicotinamide]"
  Rate of increase or decrease: 1.40
- molecule: "NCCc1ccc(O)c(O)c1"
  Rate of increase or decrease: 1.43

(a) Nc1ccn([C@@H]2O[C@H](COP(=O)(O)O)[C@@H](O)[C@H]2O)c(=O)n1 [Cytidine monophosphate]
(b) N[C@@H](CC(=O)O)C(=O)O
Inquiry: Looking at recorded values for Rate of increase or decrease, does a or b come in lower? # reply format: chosen label
Reply text: a
(a: 1.34, b: 1.93)
